- system name: T1, ADAAD R592A (Bos taurus (bovine), UniProt Q9TTA5 221-940, R812A)
- T1 sequence: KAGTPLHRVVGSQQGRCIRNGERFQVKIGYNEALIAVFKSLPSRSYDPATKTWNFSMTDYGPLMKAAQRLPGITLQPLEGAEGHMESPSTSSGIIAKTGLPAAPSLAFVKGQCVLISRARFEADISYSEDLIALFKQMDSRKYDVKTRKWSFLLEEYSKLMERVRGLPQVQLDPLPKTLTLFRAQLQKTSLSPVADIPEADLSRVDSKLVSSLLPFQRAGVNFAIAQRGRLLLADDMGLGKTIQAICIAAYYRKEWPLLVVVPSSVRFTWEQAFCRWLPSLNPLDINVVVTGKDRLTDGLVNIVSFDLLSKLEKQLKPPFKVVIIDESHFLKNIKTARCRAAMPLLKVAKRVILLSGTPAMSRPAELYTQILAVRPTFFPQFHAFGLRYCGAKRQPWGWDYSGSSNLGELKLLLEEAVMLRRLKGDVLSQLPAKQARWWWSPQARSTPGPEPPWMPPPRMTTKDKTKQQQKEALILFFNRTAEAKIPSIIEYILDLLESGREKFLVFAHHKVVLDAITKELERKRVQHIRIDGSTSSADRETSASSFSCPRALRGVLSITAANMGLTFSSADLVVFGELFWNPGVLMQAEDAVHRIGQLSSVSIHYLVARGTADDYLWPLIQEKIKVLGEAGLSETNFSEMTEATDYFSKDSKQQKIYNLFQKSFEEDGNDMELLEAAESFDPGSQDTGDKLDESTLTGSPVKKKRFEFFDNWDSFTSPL
- experiment description: intrinsic tryptophan fluorescence titration; no ATP; Fluorescence titration (ex 295 nm, em 340 nm), one-site saturation fit; buffer, salt, pH and temperature not given in the material. Wild-type ADAAD Kd values are cited from ref 24 and not listed
- test context: protein: recombinant; tags: His (Ni-NTA, pET-14b); hairpin
measurement kind: pKd
pKd (log units): -log10 of the concentration in mol/L.

Annotate the binder GCGCAATTGCGCTCGACGATTTTTTAGCGCAATTGCGC (structured_DNA) [slDNA (stem-loop DNA)] with its measured pKd.
7.50
